Origin of measurements: the nanobody polyreactivity screen of Harvey et al. (2022)

Assay: yeast display, Sf9 membrane polyspecificity reagent, FACS + sequencing; frameworks hold sequencing errors
Recorded Endpoint: polyreactivity (PSR sort gate)

seq_string=QVQLVESGGGLVQAGGSLRLSCASSGYIYIVNAMGWYRQAPGKERELDAAINSSGGNTYYADSVKGRFTISRDNAKNTVYLQMNSLKPEDTGVYYCAADQAKDISFEYDYWGQGTQVTVSS endpoint_result="low polyreactivity"
seq_string=QVQLVESGGGLVQAGGSLRLSCAASGSTFHLYAMGWYRQAPGKEREFVAAIRGRGGNTYADSVKGRFTISRDNAKNTVYLQMNSLKPEDTAFYYCAAPLLRDLRSPYSYNYWGQGTQVTVSS endpoint_result="low polyreactivity"
seq_string=QVQLVESGGGLVQAGGSLRLSCAASGLIFTWYAMGWYRQAPGKERELVADISWSDDSTNYADSVKGRFTISRDNAKNTVYLQMNSLKPEDTAVYYCATQLDYGGRVGDADDYWGQGTQVTVSS endpoint_result="low polyreactivity"
seq_string=QVQLVESGGGLVQAGGSLRLSCAASGLTFSRYAMGWYRQAPGKERELVATIRSAGSTYYADSVKGRFTISRDNAKNTVYLQMNTLKPEDTAVYYCATAPYYHVKQRYYYWGQGTQVTVSS endpoint_result="high polyreactivity"
seq_string=QVQLVESGGGLVQAGGSLRLICAASGSIFIGNTMGWYRQAPGKERELVATIRRSGSRTYYADSVKGRFTISRDNAKNTVYLQMNSLKPEDPAVYYCNAEGVGRYSPVSHTFDYWGQGTQVTLSS endpoint_result="low polyreactivity"

Please supply polyreactivity (PSR sort gate) for each of the following items, keeping them in order.
1. QVQHVESGGGLVQAGGRLRLSCAASGRIFGGYTMGWYRQAPGKERELVAAINSGGSTYYADSVKGRFTISRDNAKNTVYLQMNCLKPEDTAVYYCAKVRSYFGKYGYGYWGQGTQVTVSS
2. QVQLVESGGGLVQAGGSLRLSCAASGFIFQPYSLGWYRQAPGKERELVAAITSRGGRTYYADSVKGRFTISRDNAKNTVYLQMNSLKPEDTAVYYCNADIYASEYYYWGQGTQVTVSS
3. QVQLVESGGGLVQAGGSLRLSCAASGSIFPGNAMGWYRQAPGKERELVAAIDFSGGSTYYADSVKGRFTISRDNAKNTVYLQMNSLKPEDTAVYYCAASVYPYYGYGYWGQGTQVTVSS

(A)
1. high polyreactivity
2. low polyreactivity
3. low polyreactivity
